Kindly state cAMP (I/A)50, inhibition index for each of the entries shown.
Molecular target: human glucagon receptor (human, UniProt P47871 26-477)
Sequence (P47871 26-477): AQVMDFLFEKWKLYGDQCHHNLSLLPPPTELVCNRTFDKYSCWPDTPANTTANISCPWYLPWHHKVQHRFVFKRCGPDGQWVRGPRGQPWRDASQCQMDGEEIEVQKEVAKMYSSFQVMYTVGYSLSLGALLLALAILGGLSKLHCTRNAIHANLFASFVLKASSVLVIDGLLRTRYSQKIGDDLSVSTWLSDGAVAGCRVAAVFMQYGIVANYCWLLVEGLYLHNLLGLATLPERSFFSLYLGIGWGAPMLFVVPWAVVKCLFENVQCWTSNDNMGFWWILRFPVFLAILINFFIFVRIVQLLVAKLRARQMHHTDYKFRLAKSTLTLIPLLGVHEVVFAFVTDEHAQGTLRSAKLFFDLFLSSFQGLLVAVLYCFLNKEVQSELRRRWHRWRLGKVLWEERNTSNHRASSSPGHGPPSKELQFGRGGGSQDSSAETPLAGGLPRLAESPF
Assay: cell-based or functional assay
Primed or numbered codes have the meaning given here. Ends that are not written are not given here. CH2CH2COOH′ = not defined here
Answers are plain numbers, in ratio.

Examples with their reported cAMP (I/A)50, inhibition index follow.
FTSC(CH2COOH)YSKYLDSRRAQDFVQWLMNT-NH2 [[(CSA-1)^9]Glucagon(aa6-29)-NH2] :: 506
FTSKYSKYLDSRRAQDFVQWLMNT-NH2 [[Lys^9]Glucagon(aa6-29)-NH2] :: 1990
FTSEYSKYLDSRRAQDFVQWLMNT-NH2 [[Glu^9]Glucagon(aa6-29)-NH2] :: 486
FTSC(CH2CH2COOH′)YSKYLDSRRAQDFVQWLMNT-NH2 [[(CSA-2)^9]Glucagon(aa6-29)-NH2] :: 580
GTFTSEYSKYLDSRRAQDFVQWLMNT-NH2 [[Glu^9]Glucagon(aa4-29)-NH2] :: 1380

Attention now shifts to the item below.
Ask: Sample FTSDYSKYLDSRRAQDFVQWLMNT-NH2 [Glucagon(aa6-29)-NH2] — what was its cAMP (I/A)50, inhibition index?
Result: 1730
